- measured on: Tie2 (Homo sapiens)
- Sequence (Q02763 23-1124): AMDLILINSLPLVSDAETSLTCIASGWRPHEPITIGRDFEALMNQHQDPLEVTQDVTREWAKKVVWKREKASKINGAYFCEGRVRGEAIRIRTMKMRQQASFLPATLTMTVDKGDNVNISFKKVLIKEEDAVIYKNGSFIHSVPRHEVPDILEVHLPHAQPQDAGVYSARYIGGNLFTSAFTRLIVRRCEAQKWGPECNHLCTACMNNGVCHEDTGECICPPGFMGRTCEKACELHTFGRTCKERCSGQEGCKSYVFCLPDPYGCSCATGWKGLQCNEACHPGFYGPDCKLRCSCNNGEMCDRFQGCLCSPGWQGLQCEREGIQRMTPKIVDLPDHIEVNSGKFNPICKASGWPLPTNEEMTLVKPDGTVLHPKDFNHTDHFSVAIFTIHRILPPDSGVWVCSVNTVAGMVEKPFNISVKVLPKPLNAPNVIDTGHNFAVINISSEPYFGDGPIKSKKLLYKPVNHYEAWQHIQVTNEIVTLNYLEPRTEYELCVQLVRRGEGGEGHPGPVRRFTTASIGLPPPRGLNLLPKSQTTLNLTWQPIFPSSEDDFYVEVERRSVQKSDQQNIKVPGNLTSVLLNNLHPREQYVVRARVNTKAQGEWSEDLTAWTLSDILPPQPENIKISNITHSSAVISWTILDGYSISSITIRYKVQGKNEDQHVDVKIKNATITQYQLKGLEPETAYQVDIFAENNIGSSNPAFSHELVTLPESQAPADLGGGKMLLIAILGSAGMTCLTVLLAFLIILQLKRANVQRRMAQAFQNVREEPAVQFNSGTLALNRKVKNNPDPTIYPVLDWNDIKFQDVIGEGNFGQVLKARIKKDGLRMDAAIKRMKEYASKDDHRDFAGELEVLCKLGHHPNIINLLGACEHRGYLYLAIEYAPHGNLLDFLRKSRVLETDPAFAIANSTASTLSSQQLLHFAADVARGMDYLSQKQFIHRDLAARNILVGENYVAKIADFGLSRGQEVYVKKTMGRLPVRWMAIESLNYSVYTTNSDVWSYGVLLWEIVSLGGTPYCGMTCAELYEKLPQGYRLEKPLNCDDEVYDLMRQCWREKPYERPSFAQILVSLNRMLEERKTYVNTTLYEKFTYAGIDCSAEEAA
- assay remarks: Tie2 ELISA assay (assay 1): cellular Tie2 autophosphorylation
- Format: cell-based
- Parameters: expressed in transfected cells; host or cells: CHO (DHFR-deficient), stably transfected
- measurement conditions: CHO cells stably transfected with Tie2, stimulated by angiopoietin-2; Tie2 autophosphorylation by sandwich-ELISA; read-out: Tie 2 activity (assay 1)
Please provide measured IC50 for the entries that follow.

{"compound": "Cn1nc(N)c2c(-c3ccc(NC(=O)Nc4cccc(C(F)(F)F)c4)cc3)cc(C3CCC3)nc21", "observed property": "IC50", "result": "≤ 100 nM"}
{"compound": "Cn1nc(N)c2c(-c3ccc(NC(=O)Nc4cccc(C(F)(F)F)c4)cc3)cc(C3(C(=O)NC4CC4)CC3)nc21", "observed property": "IC50", "result": "≤ 100 nM"}
{"compound": "Cn1nc(N)c2c(-c3ccc(NC(=O)Nc4ccccc4)cc3)ccnc21 [PA6, reference compound]", "observed property": "IC50", "result": "1000 to 10000 nM"}
{"compound": "Cn1nc(N)c2c(-c3ccc(NC(=O)Nc4cccc(C(F)(F)F)c4)cc3)cc(C3(C(=O)N4CCCC4)CC3)nc21", "observed property": "IC50", "result": "≤ 100 nM"}
{"compound": "Cn1nc(N)c2c(-c3ccc(NC(=O)Nc4cccc(C(F)(F)F)c4)cc3)cc(C3CCCCC3)nc21", "observed property": "IC50", "result": "≤ 100 nM"}
{"compound": "CNC(=O)C1(c2cc(-c3ccc(NC(=O)Nc4cccc(C(F)(F)F)c4)cc3)c3c(N)nn(C)c3n2)CC1", "observed property": "IC50", "result": "100 to 1000 nM"}

Ask: # lookup: IC50 of Cn1nc(N)c2c(-c3ccc(NC(=O)Nc4cccc(C(F)(F)F)c4)cc3)cc(C3(C(=O)Nc4ccccc4)CC3)nc21
Result: 100 to 1000 nM
